# credit: paper PMC12135181

target: EcTrpRS (Escherichia coli, UniProt P00954); construct: hexahistidine tag (C); made in house; host or cells: Escherichia coli BL21(DE3); assay: Pyrophosphate (PPi) production assay; format: biochemical; details: 10 μM compound; average of three; read-out: Inhibitory rate of PPi production activity of EcTrpRS

| MOLECULE | inhibition at 10 µM / % |
| --- | --- |
| C=CC(=O)N1CCC[C@H](n2c(=O)n(-c3ccc(Oc4ccccc4)cc3)c3c(N)ncnc32)C1 [ONO-4059 analogue] | 38 |
| CN=C1NC(=O)[C@H]([C@H](C)c2c[nH]c3ccccc23)O1 [indolmycin] | 93 |
| C=CC(=O)N1CCC[C@@H](n2c(=O)n(-c3ccc(Oc4ccccc4)cc3)c3c(N)nccc32)C1 [tolebrutinib] | 19 |
| C=CC(=O)N1CCC[C@@H](n2nc(-c3ccc(Oc4ccccc4)cc3)c3c(N)ncnc32)C1 [ibrutinib] | 12 |
| CC#CC(=O)N1CC[C@@H](n2c(=O)n(-c3ccc(Oc4ccccc4)cc3)c3c(N)ncnc32)C1 [tirabrutinib] | 50 |
